Recorded % Binding retained on T-cells, 55° C., one value per entry.
biological target: T1, CD3 on primary human pan T cells (human, UniProt P07766 23-207); assay: flow cytometry, pan T-cells
T1 construct: on cells it stands in the TCR/CD3 complex; also called Pan T-cells (CD3-positive); endogenous CD3
T1 sequence (P07766 23-207 limits assumed): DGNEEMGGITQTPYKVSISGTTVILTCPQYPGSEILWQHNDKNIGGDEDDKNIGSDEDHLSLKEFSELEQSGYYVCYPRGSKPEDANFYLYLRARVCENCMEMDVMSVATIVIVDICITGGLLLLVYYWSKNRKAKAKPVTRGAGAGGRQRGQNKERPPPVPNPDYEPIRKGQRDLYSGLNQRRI
A number alone suffices; assume fraction.

Known results for binders:
CD3B2029 (scFv) scFv: QVQLVQSGAEVKKPGSSVKVSCKASGYTFTRSTMHWVKQAPGQGLEWIGYINPSSAYTNYNQKFQGRVTLTADKSTSTAYMELSSLRSEDTAVYYCASPQVHYDYNGFPYWGQGTLVTVSSGGSEGKSSGSGSESKSTGGSEIVLTQSPATLSASPGERVTLSCSASSSVSYMNWYQQKPGQSPRRWIYDSSKLASGVPARFSGSGSGRDYTLTISSLEPEDFAVYYCQQWSRNPPTFGGGTKVEIK    1.06
CD3B2071 (scFv) scFv: QVQLVQSGAEVKKPGSSVKVSCKASGYTFTRSTMHWVRQAPGQGLEWMGYINPSSAYTNYNQKFQGRVTLTADKSTSTAYMELSSLRSEDTAVYYCASPQVHYDYNGFPYWGQGTLVTVSSGGSEGKSSGSGSESKSTGGSEIVLTQSPATLSASPGERVTLSCSASSSVSYMNWYQQKPGTAPRRLIYDSSKLASGVPARFSGSGSGRDYTLTISSLEPEDFAVYYCQQWSRNPPTFGGGTKVEIK    1.01
CD3B2044 (scFv) scFv: QVQLVQSGAEVKKPGSSVKVSCKASGYTFTRSTMHWVRQAPGQGLEWIGYINPSSAYTNYNQKFQGRVTLTADKSTSTAYMELSSLRSEDTAVYYCASPQVHYDYNGFPYWGQGTLVTVSSGGSEGKSSGSGSESKSTGGSEIVLTQSPATLSASPGERVTLSCSASSSVSYMNWYQQKPGQSPRRWIYDSSKLASGVPARFSGSGSGRDYTLTISSLEPEDFAVYYCQQWSRNPPTFGGGTKVEIK    0.786
CD3B2069 (scFv) scFv: QVQLVQSGAEVKKPGSSVKVSCKASGYTFTRSTMHWVRQAPGQGLEWMGYINPSSAYTNYNQKFQGRVTLTADKSTSTAYMELSSLRSEDTAVYYCASPQVHYDYNGFPYWGQGTLVTVSSGGSEGKSSGSGSESKSTGGSEIVLTQSPATLSASPGERVTLSCSASSSVSYMNWYQQKPGTAPRRWIYDSSKLASGVPARFSGSGSGRDYTLTISSLEPEDFAVYYCQQWSRNPPTFGGGTKVEIK    1.08

# context switch: different binder, same % Binding retained on T-cells, 55° C.
*Q* State, in one line, measured % Binding retained on T-cells, 55° C. of CD3B2080 (scFv) scFv: QVQLVQSGAEVKKPGSSVKVSCKASGYTFTRSTMHWVRQAPGQGLEWIGYINPSSAYTNYAQKFQGRVTLTADKSTSTAYMELSSLRSEDTAVYYCASPQVHYDYNGFPYWGQGTLVTVSSGGSEGKSSGSGSESKSTGGSEIVLTQSPATLSASPGERVTLSCSASSSVSYMNWYQQKPGQSPRRWIYDSSKLASGVPARFSGSGSGRDYTLTISSLEPEDFAVYYCQQWSRNPPTFGGGTKVEIK
*A* 1.07

These measurements were taken from patent US20250145711A1.
